assay readout: melting point

molecule=Cc1nn(C)c(Cl)c1C=O recorded_result="78 to 79 °C"
molecule=CCCCCCCCCCc1ccc(C(C)=O)cc1 recorded_result="33 to 35 °C"
molecule="CC(c1ccccc1)N1CC(C(=O)O)CC1=O (centres undefined)" recorded_result="210 to 213 °C"
molecule=O=C(O)C=Cc1ccc(Sc2ccccn2)c([N+](=O)[O-])c1 recorded_result="177 to 178 °C"
molecule=Oc1ccc(Cl)cc1C1CCCCC1 recorded_result="59 to 60 °C"

Retrieve melting point measured for COc1ccc(C2(C(=O)O)CC2)cc1 and print it.
127 to 132 °C

Provide only the value of recorded melting point for COc1cc(N=C=O)cc(OC)c1
34 to 35.5 °C

Let me know recorded melting point for NNC(=O)c1cnn(-c2ccc(Cl)cc2)c1C(F)(F)F , thanks.
179 to 181 °C

Please report the measured melting point for O=C=Nc1ccc(Cl)cc1Cl
59 to 60 °C

Name the recorded melting point of the item Cc1ccc(O)c(C(O)c2ccc(Br)cc2)c1 (centres undefined) in your answer.
107 °C

For the molecule CC(C)OC(=O)NC(C(=O)NC(C)c1nc2ccc(F)cc2s1)C(C)C (centres undefined) , give its reported melting point.
153 °C

Please report the measured melting point for CN1CC(C(=O)NC2(C)OC3(O)C4CCCN4C(=O)C(Cc4ccccc4)N3C2=O)C=C2c3cccc4[nH]cc(c34)CC21 (centres undefined)
214 °C

Return reported melting point. Input molecule: CC(O)c1ccccc1 (centres undefined)
20 °C

State, in one line, measured melting point of COc1ccc2c(c1)CC1(CCC(=O)CC1)C2=O
93 °C

* * *

Measured melting point, listed per entry.

Solved entries:
compound=CC(C)(C)OC(=O)N[C@@H](Cc1c[nH]cn1)C(=O)O recorded_result="196 to 199 °C"
compound="CC(C)NC(=O)C(Br)C(C)(C)C (stereo not drawn)" recorded_result="128 to 130 °C"

Turning to the following compound.
Output melting point of O=C(O)CCCc1ccc2c(c1)OCCO2
76 to 78 °C

* * *

Catalogue of compounds with associated melting point

Field: example entries. Status: answers known.
compound=O=C(O)c1cnccc1Cl recorded_result="200 to 215 °C"
compound=O=S(=O)(Cl)c1ccc2nsnc2c1 recorded_result="69 to 74 °C"
compound=COCN1CCOCCOCCN(COC)CCOCCOCC1 recorded_result="33 to 38 °C"
compound="CC1CCC2(NC1)OC1CC3C4CCC5CC(O)CCC5(C)C4CCC3(C)C1C2C (centres undefined)" recorded_result="210 °C"
compound=COC(=O)c1sc(SC)c(S(=O)(=O)C(C)C)c1Cl recorded_result="141 to 144 °C"
compound=N#CCC(=O)NN recorded_result="114 °C"
compound="COc1cc(C2Nn3c(nnc3-c3cccnc3)S2)ccc1O (centres undefined)" recorded_result="216 °C"
compound=COc1cc(OC(C)=O)c2c(=O)c(O[C@@H]3O[C@H](COC(C)=O)[C@H](OC(C)=O)[C@H](OC(C)=O)[C@@H]3O[C@@H]3O[C@H](C)[C@H](OC(C)=O)[C@H](OC(C)=O)[C@@H]3OC(C)=O)c(-c3ccc(OC(C)=O)c(OC(C)=O)c3)oc2c1 recorded_result="117 to 120 °C"
compound=CC(=O)c1ccc(O)c(C(N)=O)c1 recorded_result="221 to 226 °C"
compound=O=C(Cc1ccccc1)C(Cc1ccccc1)=NNc1ccc([N+](=O)[O-])cc1 recorded_result="174 °C"

Entry CC/C=C/CCCC needs its melting point filled in; supply it.
-110 °C

Return melting point (reported value) for this compound: Cc1c(Cl)c(C)c([N+](=O)[O-])c(O)c1Cl
227 to 229 °C

For the compound O=C=NCCCCCCN=C=O , give its measured melting point value.
-67 °C
